The values you see were collected from paper PMC7819943.

Reported binding signal by item:
- Target or test system: OsSMF1 (Oryza sativa, UniProt Q6ZLB0 1-436)
- Sequence: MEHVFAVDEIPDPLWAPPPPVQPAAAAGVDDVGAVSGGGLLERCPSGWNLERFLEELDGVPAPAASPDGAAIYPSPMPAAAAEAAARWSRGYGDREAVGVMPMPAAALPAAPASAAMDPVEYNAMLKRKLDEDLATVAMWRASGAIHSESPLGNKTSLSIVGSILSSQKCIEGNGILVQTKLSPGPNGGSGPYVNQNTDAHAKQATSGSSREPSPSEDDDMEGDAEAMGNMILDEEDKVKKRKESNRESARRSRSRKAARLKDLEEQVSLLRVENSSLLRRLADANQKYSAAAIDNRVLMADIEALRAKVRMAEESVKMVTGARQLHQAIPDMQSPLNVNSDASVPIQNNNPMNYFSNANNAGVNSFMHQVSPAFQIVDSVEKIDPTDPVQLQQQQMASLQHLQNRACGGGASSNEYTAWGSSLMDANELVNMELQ
- Protocol summary: protein-binding microarray (RPBM); PBS, 2% BSA, 51.3 ng/ul salmon testes DNA, 50 uM zinc acetate, 200 nM TF, 25 C, 1 h; high values mean tight binding
- Condition set: protein: recombinant; tags: N-terminal polyhistidine and DsRed monomer fusion (pET32a); chain copies: 2; label: CyDye5-dUTP incorporated in the synthesized complementary strand; 3' TTTTT single-stranded linker to array surface; dsDNA, one strand shown
Whole data set: some 39,000 sequences, median “fluorescence intensity (a.u.)” near 4,300, cut for the highest 2% near 39,000. The sample holds the highest values, similar sequences and a random draw of the others, so the mix is not that of the screen.
Assay metric: binding signal

polymer_sequence=TATAGAATTTTCTCTTAAAATACTTATCCGATTTATGATCCGGAGTCACCTAGTGCAG assay_metric="binding signal" obs_value="54100 fluorescence intensity (a.u.)"
polymer_sequence=GTACATCAAACATTATCAATATCGGACACATAATCCATTGCGGAGTCACCTAGTGCAG assay_metric="binding signal" obs_value="3850 fluorescence intensity (a.u.)"
polymer_sequence=TTATATCGTTTTAATTTCAATTAAACTTTCAATTTTAGTGCGGAGTCACCTAGTGCAG assay_metric="binding signal" obs_value="48400 fluorescence intensity (a.u.)"
polymer_sequence=CCATAATCACACTTCAATAGTAGTACTACCACAATTGCATCGGAGTCACCTAGTGCAG assay_metric="binding signal" obs_value="45100 fluorescence intensity (a.u.)"
polymer_sequence=TTCACACCCAGATAAATACAGCCTACTAGACCAATAGCCACGGAGTCACCTAGTGCAG assay_metric="binding signal" obs_value="40000 fluorescence intensity (a.u.)"
